What Ki was measured for each of the following?
Tested System: 5-hydroxytryptamine receptor 1A (Homo sapiens, UniProt P08908)
Sequence (P08908 whole entry): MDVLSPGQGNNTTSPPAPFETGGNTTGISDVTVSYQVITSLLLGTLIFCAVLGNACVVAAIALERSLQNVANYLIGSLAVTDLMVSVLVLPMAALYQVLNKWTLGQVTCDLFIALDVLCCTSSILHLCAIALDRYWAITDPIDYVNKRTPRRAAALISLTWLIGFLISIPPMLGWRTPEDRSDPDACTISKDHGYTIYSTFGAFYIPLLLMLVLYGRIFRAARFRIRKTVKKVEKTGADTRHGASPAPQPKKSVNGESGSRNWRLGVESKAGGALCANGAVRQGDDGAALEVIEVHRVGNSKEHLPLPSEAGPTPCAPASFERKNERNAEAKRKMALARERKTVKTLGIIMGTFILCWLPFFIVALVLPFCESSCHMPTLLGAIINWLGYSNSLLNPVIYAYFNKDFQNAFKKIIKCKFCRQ
Numeric answer only, unit nM assumed.

Assay 5-hydroxytryptamine receptor 1A (Homo sapiens, UniProt P08908), sample Cn1c(=O)cnn(CCCCN2CCN(c3ccc(F)cn3)CC2)c1=O , Ki read: 68

Assay 5-hydroxytryptamine receptor 1A (Homo sapiens, UniProt P08908), sample Cn1c(=O)cnn(CCCCN2CCN(c3ncccn3)CC2)c1=O [EPTAPIRONE] , Ki read: 175

Assay 5-hydroxytryptamine receptor 1A (Homo sapiens, UniProt P08908), sample COc1ccc(N2CCN(CCCCn3ncc(=O)n(C)c3=O)CC2)cc1 , Ki read: 414
